- target-or-test-system: T1, h-FAP-His (human, UniProt Q12884 26-760)
- T1 construct: range 26-760; Bought recombinant protein with a His tag; also called human FAP-His protein; FAP recombinant protein with a His tag
- T1 sequence (Q12884 26-760 limits assumed): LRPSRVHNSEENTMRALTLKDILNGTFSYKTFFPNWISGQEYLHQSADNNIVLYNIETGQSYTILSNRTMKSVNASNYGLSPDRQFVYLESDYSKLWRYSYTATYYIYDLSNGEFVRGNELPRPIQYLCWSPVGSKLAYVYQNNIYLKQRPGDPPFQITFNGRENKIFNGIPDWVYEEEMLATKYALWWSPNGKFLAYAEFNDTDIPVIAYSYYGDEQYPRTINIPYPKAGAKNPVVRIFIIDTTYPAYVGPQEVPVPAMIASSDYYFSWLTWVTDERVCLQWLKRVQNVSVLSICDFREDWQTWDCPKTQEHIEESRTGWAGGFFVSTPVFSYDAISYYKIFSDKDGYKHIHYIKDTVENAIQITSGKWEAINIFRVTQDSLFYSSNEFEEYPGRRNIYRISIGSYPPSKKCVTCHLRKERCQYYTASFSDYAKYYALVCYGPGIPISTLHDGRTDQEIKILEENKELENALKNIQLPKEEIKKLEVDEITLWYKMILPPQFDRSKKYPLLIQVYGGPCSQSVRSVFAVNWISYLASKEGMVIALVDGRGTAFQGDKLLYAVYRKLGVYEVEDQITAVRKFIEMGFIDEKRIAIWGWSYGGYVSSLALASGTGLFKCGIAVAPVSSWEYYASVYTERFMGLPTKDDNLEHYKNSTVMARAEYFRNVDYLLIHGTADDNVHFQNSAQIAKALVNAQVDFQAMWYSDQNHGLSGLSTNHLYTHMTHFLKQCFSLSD
- measurement-notes: SPR, antibody captured by anti-human IgG Fc, h-FAP-His analyte
// reported Kd for each item listed

| binder | Kd |
| --- | --- |
| Ab14 (antibody, human IgG1, kappa, L234A L235A, V domains shown, Fully human, IgG1 / kappa; also called anti-FAP antibody Ab14; Ab114) VH: QVQLQQSGVEVKKPGASVTVSCRASGYSFADHFIHWVRQAPGQGFQWMGWINPNRGVTHHAQDFQGRVAMTRDMSTDTVYMELTSLRSDDTAVYYCARDASLTARPYYFYGFDVWGQGTLVTVSS VL: EIVLTQSPSSVSASVGDRVTITCRASQGISSWLAWYQQKPGKAPKLLIYAASSLQSGVPSRFSGSGSGTDFTLTISSLQPEDFATYYCQQANSFPLTFGGGTKVEIKR | 0.365 nM |
| Ab10 (antibody, human IgG1, kappa, L234A L235A, V domains shown, Fully human, IgG1 / kappa; also called anti-FAP antibody Ab10; Ab110) VH: QVQLQQSGVEVKKPGASVTVSCRASGYSFADHFIHWVRQAPGQGFQWMGWINPNRGVTHHAQDFQGRVAMTRDMSTDTVYMELTSLRSDDTAVYYCARDASLTARPYYFYGFDVWGQGTLVTVSS VL: DIQMTQSPSSVSASVGDRVTITCRASQGISSWLAWYQQKPGKAPKLLIYAASSLQSGVPSRFSGSGSGTDFTLTISSLQPEDFATYYCQQANSFPPAFGQGTKVEIKR | 0.245 nM |
